Test system: MCF-7
protocol-details: cells
condition-notes: Homo sapiens, MCF7, 48 h, read-out: Cell growth (%) MCF-7

compound	activity at 10 µM, %
O=P(Nc1ccccc1)(Nc1ccc([Se][Se]c2ccc(NP(=O)(Nc3ccccc3)Oc3ccccc3)cc2)cc1)Oc1ccccc1 (centres unmarked)	90
COP(=O)(Nc1ccc([Se]C#N)cc1)OC	-5.82
N#C[Se]c1ccc(NC(=O)c2ccccc2)cc1	63.7
O=C(Nc1ccc([Se][Se]c2ccc(NC(=O)c3cccc4ccccc34)cc2)cc1)c1cccc2ccccc12	75.5
CSc1ccc(C(=O)Nc2ccc([Se][Se]c3ccc(NC(=O)c4ccc(SC)cc4)cc3)cc2)cc1	64
